- subject.of.test: T1, bovine thrombin (Bos taurus, UniProt P00735)
- T1 construct: addition of bovine thrombin (1 U per 200 μL)
- test.method.notes: Thrombin induction of autoinhibited TVMV-based biosensor protease activity (quenched fluorescent TVMV substrate)
- Format: biochemical
- experimental.parameters: biosensor 1 μM, 10 μM protease substrate, presence vs absence of bovine thrombin (1 U per 200 μL)
measured.quantity: Fold Induction

Ask: Could you share which Fold Induction value was measured for H6-68: thrombin-inducible autoinhibited TVMV biosensor, SEQ ID NO: 7 (protein, protease construct) SSGSKALLKGVRDFNPISACVCLLENSSDGHSERLFGIGFGPYIIANQHLFRRNNGELTIKTMHGEFKVKNSTQLQMKPVEGRDIIVIKMAKDFPPFPQKLKFRQPTIKDRVCMVSTNFQQKSVSSLVSESSHIVHKEDTSFWQHWITTKDGQCGSPLVSIIDGNILGIHSLTHTTNGSNYFVEFPEKFVATYLDAADGWCKNWKFNADKISWGSFILWEDAPEDFMSGLVPRGVGREYVRFAPGSTHHHHHH ?
Reply: ~150-200 fold
